From: patent US20260152480A1

Assay: Pharmacokinetic study of the drug, oral administration to rats (plasma, cerebrospinal fluid, brain tissue)
Type: in vivo
Details: plasma, SD rat, 10 mg/kg, single
property measured: Cmax (ng/mL)

C=CC(=O)N1CCC(c2cc(C)cnc2Nc2ccc(C(F)(F)F)cc2)CC1    594
C=CC(=O)N1CCC(c2cc(Cl)cnc2Oc2ccc(C(F)(F)F)cc2)CC1    1650
C=CC(=O)N1CCC(c2nccnc2Oc2ccc(C(F)(F)F)cc2)CC1    1180
C=CC(=O)N1CCC(c2c(Nc3ccc(C(F)(F)F)cc3)ncc3ccccc23)CC1    804
C=CC(=O)N1CCC(c2cc(-c3cnn(C)c3)cnc2Nc2ccc(C(F)(F)F)cc2)CC1    1960
C=CC(=O)N1CCC(c2nccnc2Nc2ccc(C(F)(F)F)cc2)CC1    2840
C=CC(=O)N1CCC(c2cc(-c3cc[nH]n3)cnc2Nc2ccc(C(F)(F)F)cc2)CC1    901
C=CC(=O)N1CCC(c2cccnc2Nc2ccc(C(F)(F)F)cc2)CC1    919
C=CC(=O)N1CCC(c2cccnc2Oc2ccc(C(F)(F)F)cc2)CC1    679
C=CC(=O)N1CCC(c2ccc(Cl)nc2Nc2ccc(C(F)(F)F)cc2)CC1    1880
